- Test system: Bacillus subtilis PCI 219
- experiment.notes: MIC, in vitro antibacterial activity (standard strains)
- Format: cell-based
- test.context: Bacillus subtilis, PCI219; 10^6 cells/ml; Gram +; read-out: MIC
For each of the compounds below, state its MIC.
Note: unit µg/mL is implicit; provide only the numeric part.

## Input Entry under review: C[C@@H]1CN(c2c(F)cc3c(=O)c(C(=O)O)cn(C4CC4)c3c2Br)C[C@H]1N (relative stereo) . Reported MIC?
## Output 0.0125

## Input Entry under review: CCn1cc(C(=O)O)c(=O)c2cc(F)c(N3C[C@@H](N)[C@@H](C)C3)c(F)c21 (relative stereo) . Reported MIC?
## Output 0.05

## Input Entry under review: C[C@H]1CN(c2c(F)cc3c(=O)c(C(=O)O)cn(CCF)c3c2F)C[C@H]1N (relative stereo) . Reported MIC?
## Output 0.1

## Input Entry under review: C[C@H]1CN(c2c(F)cc3c(=O)c(C(=O)O)cn(C4CC4)c3c2Cl)C[C@H]1N (relative stereo) . Reported MIC?
## Output 0.0125

## Input Entry under review: C[C@@H]1CN(c2c(F)cc3c(=O)c(C(=O)O)cn(C4CC4)c3c2F)C[C@H]1N (relative stereo) . Reported MIC?
## Output 0.025

## Input Entry under review: CNCC1CN(c2c(F)cc3c(=O)c(C(=O)O)cn(C4CC4)c3c2Cl)CC1C (stereo not shown) . Reported MIC?
## Output 0.0125

## Input Entry under review: C[C@@H]1CN(c2c(F)cc3c(=O)c(C(=O)O)cn(C4CC4)c3c2Cl)C[C@H]1N (relative stereo) . Reported MIC?
## Output 0.0125

###

- System: E. coli ML 4707
- experiment.notes: MIC, in vitro antibacterial activity (standard strains)
- Assay type: cell-based, Escherichia coli
- test.context: Escherichia coli, ML4707, 10^6 cells/ml; Gram -; Table 1; read-out: MIC
For each of the compounds below, state its MIC.
Provide the measurement as a number trailed by its unit.

## Input Entry under review: CCNCC1CN(c2c(F)cc3c(=O)c(C(=O)O)cn(C4CC4)c3c2Cl)CC1C (centres unmarked) . Reported MIC?
## Output 50 ng/mL

## Input Entry under review: C[C@@H]1CN(c2c(F)cc3c(=O)c(C(=O)O)cn(C4CC4)c3c2Cl)C[C@H]1N (relative stereo) . Reported MIC?
## Output 6.3 ng/mL

## Input Entry under review: C[C@H]1CN(c2c(F)cc3c(=O)c(C(=O)O)cn(C4CC4)c3c2Cl)C[C@H]1N (relative stereo) . Reported MIC?
## Output 6.3 ng/mL

## Input Entry under review: C[C@@H]1CN(c2c(F)cc3c(=O)c(C(=O)O)cn(C4CC4)c3c2F)C[C@H]1N (relative stereo) . Reported MIC?
## Output 6.3 ng/mL

## Input Entry under review: C[C@@H]1CN(c2c(F)cc3c(=O)c(C(=O)O)cn(C4CC4)c3c2Br)C[C@H]1N (relative stereo) . Reported MIC?
## Output 12.5 ng/mL

###

For each of the compounds below, state its MIC.
- System: P. cepacia GIFU 518
- experiment.notes: MIC, in vitro antibacterial activity (standard strains)
- Format: cell-based
- test.context: Burkholderia cepacia, GIFU518
Note: unit µg/mL is implicit; provide only the numeric part.

## Input Entry under review: CCNCC1CN(c2c(F)cc3c(=O)c(C(=O)O)cn(C4CC4)c3c2F)CC1C (stereo not shown) . Reported MIC?
## Output 0.78

## Input Entry under review: C[C@@H]1CN(c2c(F)cc3c(=O)c(C(=O)O)cn(C4CC4)c3c2F)C[C@H]1N (relative stereo) . Reported MIC?
## Output 0.1

## Input Entry under review: CCNCC1CN(c2c(F)cc3c(=O)c(C(=O)O)cn(C4CC4)c3c2Cl)CC1C (stereo not shown) . Reported MIC?
## Output 0.78

## Input Entry under review: C[C@H]1CN(c2c(F)cc3c(=O)c(C(=O)O)cn(CCF)c3c2F)C[C@H]1N (relative stereo) . Reported MIC?
## Output 1.56

###

For each of the molecules below, state its MIC.
- System: C. ramosum
- experiment.notes: MIC, in vitro antibacterial activity (standard strains)
- Format: cell-based
- test.context: Thomasclavelia ramosa; 10^6 cells/ml; Gram +; read-out: MIC
Note: unit mg/L is implicit; provide only the numeric part.

## Input Entry under review: CNCC1CN(c2c(F)cc3c(=O)c(C(=O)O)cn(C4CC4)c3c2Cl)CC1C (stereo not drawn) . Reported MIC?
## Output 0.39

## Input Entry under review: CC1CN(c2c(F)cc3c(=O)c(C(=O)O)cn(C4CC4)c3c2Cl)CC1N (stereo not drawn) . Reported MIC?
## Output 0.78

## Input Entry under review: CCn1cc(C(=O)O)c(=O)c2cc(F)c(N3C[C@@H](N)[C@@H](C)C3)c(F)c21 (relative stereo) . Reported MIC?
## Output 6.25

## Input Entry under review: C[C@H]1CN(c2c(F)cc3c(=O)c(C(=O)O)cn4c3c2OC[C@@H]4C)C[C@H]1N.Cl (mixture of isomers) . Reported MIC?
## Output 6.25

## Input Entry under review: CNCC1CN(c2c(F)cc3c(=O)c(C(=O)O)cn(C4CC4)c3c2F)CC1C (stereo not drawn) . Reported MIC?
## Output 0.78

## Input Entry under review: C[C@H]1CN(c2c(F)cc3c(=O)c(C(=O)O)cn(CCF)c3c2F)C[C@H]1N (relative stereo) . Reported MIC?
## Output 25

###

- System: K. pneumoniae 1-220S
- experiment.notes: MIC, in vitro antibacterial activity (standard strains)
- Format: cell-based, Klebsiella pneumoniae
- test.context: Klebsiella pneumoniae, 1220S; 10^6 cells/ml; Gram -; read-out: MIC
For each of the molecules below, state its MIC.
Note: unit µg/mL is implicit; provide only the numeric part.

## Input Observed MIC on K. pneumoniae 1-220S for CCNCC1CN(c2c(F)cc3c(=O)c(C(=O)O)cn(C4CC4)c3c2Cl)CC1C (stereo not drawn) , please.
## Output 0.2

## Input Observed MIC on K. pneumoniae 1-220S for CC1CN(c2c(F)cc3c(=O)c(C(=O)O)cn(C4CC4)c3c2Cl)CC1CN (stereo not drawn) , please.
## Output 0.05

## Input Observed MIC on K. pneumoniae 1-220S for C[C@@H]1CN(c2c(F)cc3c(=O)c(C(=O)O)cn(C4CC4)c3c2Cl)C[C@H]1N (relative stereo) , please.
## Output 0.0125

## Input Observed MIC on K. pneumoniae 1-220S for C[C@@H]1CN(c2c(F)cc3c(=O)c(C(=O)O)cn(C4CC4)c3c2F)C[C@H]1N (relative stereo) , please.
## Output 0.025

## Input Observed MIC on K. pneumoniae 1-220S for C[C@H]1CN(c2c(F)cc3c(=O)c(C(=O)O)cn(C4CC4)c3c2F)C[C@H]1N.Cl (relative stereo) , please.
## Output 0.05

## Input Observed MIC on K. pneumoniae 1-220S for C[C@H]1CN(c2c(F)cc3c(=O)c(C(=O)O)cn(C4CC4)c3c2Br)C[C@H]1N (relative stereo) , please.
## Output 0.05

###

- Tested on: E. limosum KYA 8486
- experiment.notes: MIC, in vitro antibacterial activity (standard strains)
- Format: cell-based
- test.context: Eubacterium limosum, KYA8486; 10^6 cells/ml; Gram +; read-out: MIC
endpoint.name: MIC (µg/mL)
Note: unit µg/mL is implicit; provide only the numeric part.

## Input Entry under review: CNCC1CN(c2c(F)cc3c(=O)c(C(=O)O)cn(C4CC4)c3c2Cl)CC1C (stereo not shown) . Reported MIC?
## Output 0.39

## Input Entry under review: CNCC1CN(c2c(F)cc3c(=O)c(C(=O)O)cn(C4CC4)c3c2F)CC1C (stereo not shown) . Reported MIC?
## Output 1.56

## Input Entry under review: CC1COc2c(N3C[C@@H](N)[C@@H](C)C3)c(F)cc3c(=O)c(C(=O)O)cn1c23.Cl (relative stereo) . Reported MIC?
## Output 6.25

## Input Entry under review: C[C@H]1CN(c2c(F)cc3c(=O)c(C(=O)O)cn4c3c2OC[C@@H]4C)C[C@H]1N.Cl (mixture of isomers) . Reported MIC?
## Output 3.13

###

- Test system: E. coli ATCC 10536
- experiment.notes: MIC, in vitro antibacterial activity (standard strains)
- Format: cell-based, Escherichia coli
- test.context: Escherichia coli, ATCC10536; 10^6 cells/ml; Gram -; read-out: MIC
For each of the compounds below, state its MIC.
Note: unit µg/mL is implicit; provide only the numeric part.

## Input Entry under review: C[C@H]1CN(c2c(F)cc3c(=O)c(C(=O)O)cn(CCF)c3c2Cl)C[C@H]1N (relative stereo) [Example 27] . Reported MIC?
## Output 0.05

## Input Entry under review: C[C@@H]1CN(c2c(F)cc3c(=O)c(C(=O)O)cn(C4CC4)c3c2Br)C[C@H]1N (relative stereo) [Example 32] . Reported MIC?
## Output 0.0125

## Input Entry under review: CNCC1CN(c2c(F)cc3c(=O)c(C(=O)O)cn(C4CC4)c3c2Cl)CC1C (stereo not shown) [Example 12] . Reported MIC?
## Output 0.05

## Input Entry under review: CC1CN(c2c(F)cc3c(=O)c(C(=O)O)cn(C4CC4)c3c2Cl)CC1N (stereo not shown) [Example 7] . Reported MIC?
## Output 0.0125
